Listing of entries alongside the reported melting point.

Problem: Report measured melting point; entry is CCCc1nc2c(N)nc(Cl)c(C)c2n1CCOCCNC(=O)c1ccccc1 [Example 125]
Result: 188 to 189 °C

Problem: Report measured melting point; entry is CCCc1nc2c(N)nc(C)c(C)c2n1CCCCS(C)(=O)=O [Example 89]
Result: 152 to 153 °C

Problem: Report measured melting point; entry is CCCc1nc2c(N)nc(C)c(C)c2n1CCCCCS(=O)(=O)c1ccccn1 [Example 87]
Result: 143 to 144.5 °C

Problem: Report measured melting point; entry is CCc1nc2c(N)nc(C)c(C)c2n1CCOCCNC(=O)C1CCCCC1 [Example 104]
Result: 170 to 172 °C

Problem: Report measured melting point; entry is CCOCc1nc2c(N)nc(C)c(C)c2n1CCOCCCc1cncnc1 [Example 112]
Result: 127 to 129 °C

Problem: Report measured melting point; entry is "CCCc1nc2c(N)nc(C)c(C)c2n1CCCCCS(=O)(=O)c1ccccc1"
Result: 134 to 136 °C

Problem: Report measured melting point; entry is CCOCc1nc2c(N)nc(C)c(C)c2n1CCOCCCc1nccs1 [Example 82]
Result: 91 to 92 °C

* * *

Listing of entries alongside the reported melting point.
Counter-ions that a name gives are not always drawn.

For orientation, consider the following solved cases.
Molecule | Obs Value
CCCc1nc2c(N)nc(C)c(C)c2n1CCCS(=O)(=O)c1ccc(C(=O)OCC)cc1 | 169 to 171 °C
CCCc1nc2c(N)nc(Cl)c(C)c2n1CCOCCN | 158 to 161 °C
Cc1nc(N)c2nc(C)n(CCOCCN)c2c1C (as salt: salt) | 130 to 133 °C
CCCCc1nc2c(N)nc(C)c(C)c2n1CCOc1ccccc1 | 130 to 132 °C
CCOCc1nc2c(N)nc(C)cc2n1CCOCc1ccccc1 | 127 to 128 °C
CCCc1nc2c(N)nc(C)c(C)c2n1CCCS(=O)(=O)c1ccccn1 | 172 to 173.5 °C
Cc1nc(N)c2nc(C)n(CCOCCNC(=O)N3CCOCC3)c2c1C (as salt: salt) | 205 to 207 °C
Cc1nc(N)c2nc(C)n(CCOCc3ccncc3)c2c1C | 208 to 210 °C
CCCCN(C)C(=O)c1ccc(S(=O)(=O)CCCn2c(CCC)nc3c(N)nc(C)c(C)c32)cc1 | 127 to 129 °C
CCOCc1nc2c(N)nc(C)c(C)c2n1CCOCCCc1cccnc1 | 78 to 78.5 °C

Problem: Report measured melting point; entry is "CCCc1nc2c(N)nc(C)c(C)c2n1CCOCc1ccccc1"
Result: 99.5 to 100 °C

Problem: Report measured melting point; entry is "Cc1nc(N)c2nc(C)n(CCCCCS(C)(=O)=O)c2c1C"
Result: 199 to 200 °C

Problem: Report measured melting point; entry is "Cc1nc(N)c2nc(C)n(CCCCCSc3ccccc3)c2c1C"
Result: 181 to 183 °C

Problem: Report measured melting point; entry is "CCCc1nc2c(N)nc(C)c(C)c2n1CCCS(C)(=O)=O"
Result: 153.5 to 155 °C

Problem: Report measured melting point; entry is "CCc1nc2c(N)nc(C)c(C)c2n1CCOCCNC(=O)NC(=O)c1ccccc1"
Result: 185 to 187 °C

* * *

Listing of entries alongside the reported melting point.
Where a name gives a salt, the structure may show the parent alone.

Molecule | melting point
CCc1nc2c(N)nc(C)c(C)c2n1CCOCCNC(=O)N1CCOCC1 | 182 to 184 °C
Cc1nc(N)c2nc(C)n(CCOCCCc3cccnc3)c2c1C | 108.6 to 109.5 °C
CCCc1nc2c(N)nc(C)c(C)c2n1CCCCCS(=O)(=O)c1ccc(F)cc1F | 130 to 132 °C
Cc1nc(N)c2nc(C)n(CCOCCNC(=O)C(C)C)c2c1C (as salt: salt) | 179.5 to 182 °C
CCCc1nc2c(N)nc(C)c(C)c2n1CCCCCS(=O)(=O)c1ccc(C(F)(F)F)cc1 | 172 to 173.5 °C
Cc1nc(N)c2ncn(CCOCc3ccncc3)c2c1C | 195 to 196 °C

Problem: Report measured melting point; entry is "CCc1nc2c(N)nc(C)c(C)c2n1CCOCCNC(=O)NC1CCCCC1"
Result: 187 to 189 °C

Problem: Report measured melting point; entry is "CSCCCCCn1c(C)nc2c(N)nc(C)c(C)c21"
Result: 121 to 122 °C

Problem: Report measured melting point; entry is "CCCc1nc2c(N)nc(C)c(C)c2n1CCCCCCS(C)(=O)=O"
Result: 157 to 158 °C

* * *

Listing of entries alongside the reported melting point.

Chem Smiles | melting point
CCCc1nc2c(N)nc(C)c(C)c2n1CCCCCS(=O)(=O)c1ccc(F)cc1 | 130 to 132 °C
CCCc1nc2c(N)nc(C)c(C)c2n1CCCCCS(C)(=O)=O | 145 to 146 °C
CCc1nc2c(N)nc(C)c(C)c2n1CCOCCNC(=O)NS(=O)(=O)c1ccccc1 | 201 to 203 °C

Problem: Report measured melting point; entry is "CCOCc1nc2c(N)nc(C)c(C)c2n1CCOCC#Cc1cncnc1"
Result: 122 to 124 °C

* * *

Structures can show the parent of a compound that is named as a salt.
Reported Metric: melting point

For orientation, consider the following solved cases.
Compound | melting point
CCCc1nc2c(N)ncc(Br)c2n1CCOCCN | 114 to 117 °C
Cc1nc(N)c2ncn(CCOc3ccccc3)c2c1C | 197 to 199 °C
CCOCc1nc2c(N)nc(C)c(C)c2n1CCOCCCc1ccccc1 (as salt: hydrochloride) | 128 to 130 °C
Cc1nc(N)c2nc(C)n(CCOC/C=C/c3ccccc3)c2c1C | 143.7 to 144.8 °C
Cc1nc(N)c2nc(C)n(CCOCCCc3ccccc3)c2c1C | 118.1 to 119 °C
CCc1nc2c(N)nc(C)c(C)c2n1CCOCCN1CCCS1(=O)=O | 157 to 159 °C

Problem: Report measured melting point; entry is "Cc1nc(N)c2nc(C)n(CCOCc3ccccc3)c2c1C"
Result: 136.8 to 137.5 °C

Problem: Report measured melting point; entry is "CCc1nc2c(N)nc(C)c(C)c2n1CCOCCNS(C)(=O)=O"
Result: 145 to 147 °C

Problem: Report measured melting point; entry is "CCCc1nc2c(N)nc(C)c(C)c2n1CCCCCS(=O)(=O)c1ccc(Cl)cc1"
Result: 147 to 149 °C

Problem: Report measured melting point; entry is "CCc1nc2c(N)nc(C)c(C)c2n1CCOCCN1CCCC1=O"
Result: 128 to 130 °C

Problem: Report measured melting point; entry is "Cc1nc(N)c2nc(C)n(CCOc3ccccc3)c2c1C"
Result: 176 to 177 °C

* * *

Reported Metric: melting point

Compound | melting point
CCCc1nc2c(N)nc(C)c(C)c2n1CCCS(=O)(=O)c1ccc(C(=O)N2CCOCC2)cc1 | 224 to 226 °C
CCCc1nc2c(N)ncc(Br)c2n1CCOCCNS(C)(=O)=O | 129 to 131 °C
CCOCc1nc2c(N)nc(C)c(C)c2n1CCOCc1ccccc1 | 107.3 to 108.2 °C

Problem: Report measured melting point; entry is "Cc1nc(N)c2nc(C)n(CCOCC#Cc3ccccc3)c2c1C"
Result: 186.8 to 187.5 °C

Problem: Report measured melting point; entry is "CCCc1nc2c(N)nc(C)c(C)c2n1CCCS(=O)(=O)c1ccc(Cl)cc1"
Result: 186.5 to 188 °C

Problem: Report measured melting point; entry is "CCOCc1nc2c(N)nc(C)c(C)c2n1CCOCc1ccncc1"
Result: 143 to 145 °C

Problem: Report measured melting point; entry is "CCCc1nc2c(N)nc(C)c(C)c2n1CCCCCS(=O)(=O)c1ccc(OC)cc1"
Result: 130.5 to 132 °C

Problem: Report measured melting point; entry is "CCOCc1nc2c(N)nc(C)c(C)c2n1CCOCC#Cc1ccccc1"
Result: 129 to 130 °C

* * *

Counter-ions that a name gives are not always drawn.
Reported Metric: melting point

Molecule | melting point
CCCCNC(=O)c1ccc(S(=O)(=O)CCCn2c(CCC)nc3c(N)nc(C)c(C)c32)cc1 [Example 119] | 147 to 149 °C
CCCc1nc2c(N)nc(C)c(C)c2n1CCCCCS(=O)(=O)c1ccc(Cl)cc1Cl [Example 95] | 130 to 131.5 °C

Alright, here's another molecule for you.
Problem: Report measured melting point; entry is CCCc1nc2c(N)nc(C)c(C)c2n1CCCS(=O)(=O)c1ccc(C(=O)O)cc1 (as salt: hydrochloride) [Example 100]
Result: > 250 °C
